meta.source: the RepoRT retention time repository

Test: HILIC, Waters ACQUITY UPLC BEH Amide, 100 × 2.1 mm, 1.7 µm; A: water + 0.125% formic acid + 10 mM ammonium formate; B: 5% water + 95% acetonitrile + 0.125% formic acid + 10 mM ammonium formate; gradient (min/%B) 0/100 2/100 7.7/70 9.5/40 10.25/30 12.75/100 17/100
Run Conditions: stereoisomer not certain
Could you please report measured LC retention time for the items listed next?
Give bare numbers, in min.

• CCCCCCCCCCCC(=O)OC(CC(=O)[O-])C[N+](C)(C)C (stereo not drawn) = 3.63
• NCCCC(=O)O = 7.86
• O=C1CCc2ccc(OCCCCN3CCN(c4cccc(Cl)c4Cl)CC3)cc2N1 = 3.14

Go through the items and report each one's LC retention time.
1. NCCCCC(=O)O
2. C=C(C)CN1CCC23c4c5ccc(O)c4OC2c2[nH]c4ccccc4c2CC3(O)C1C5 (stereo not drawn)
3. NC(CCCC(N)C(=O)O)C(=O)O (stereo not drawn)
4. CSCCCN
5. Nc1ncnc2c1ncn2C1CC2OP(=O)(O)OCC2O1 (stereo not drawn)
6. NC(CCC(=O)NC(CSSCC(NC(=O)CCC(N)C(=O)O)C(=O)NCC(=O)O)C(=O)NCC(=O)O)C(=O)O (stereo not drawn)
7. Nc1nc2c(ncn2C2OC3COP(=O)(O)OC3C2O)c(=O)[nH]1 (stereo not drawn) [Guanosine-3',5'-cyclic monophosphate]
8. CCN1CCCC1CNC(=O)c1cc(S(N)(=O)=O)ccc1OC (stereo not drawn) [Levosulpiride]

A:
7.24
2.93
9.88
5.16
7.29
10.2
8.39
4.37

----------
Test: HILIC, Waters ACQUITY UPLC BEH Amide, 100 × 2.1 mm, 1.7 µm; A: water + 0.125% formic acid + 10 mM ammonium formate; B: 5% water + 95% acetonitrile + 0.125% formic acid + 10 mM ammonium formate; gradient (min/%B) 0/100 2/100 7.7/70 9.5/40 10.25/30 12.75/100 17/100
Run Conditions: stereoisomer not certain
Could you please report measured LC retention time for the items listed next?
One number for each entry, in min.

- OCC(O)C(O)C(OC1OC(CO)C(O)C(O)C1O)C(O)CO (stereo not given): 8.99
- CC(C)CC(N(C)C)C1(c2ccc(Cl)cc2)CCC1 (stereo not given): 1.86
- NCC(=O)c1ccccc1: 1.08
- CC(N=C(NC#N)Nc1ccncc1)C(C)(C)C (stereo not given): 1.49

# input for lookup
Q: Can you share its LC retention time? I mean this molecule: Nc1ncnc2c1ncn2C1OC(CO)C(OP(=O)(O)O)C1O (stereo not given) [Adenosine-3-monophosphate]
A: 8.88

----------
Test: HILIC, Waters ACQUITY UPLC BEH Amide, 100 × 2.1 mm, 1.7 µm; A: water + 0.125% formic acid + 10 mM ammonium formate; B: 5% water + 95% acetonitrile + 0.125% formic acid + 10 mM ammonium formate; gradient (min/%B) 0/100 2/100 7.7/70 9.5/40 10.25/30 12.75/100 17/100
Run Conditions: stereoisomer not certain
Observable: LC retention time (min)
One number for each entry, in min.

Example entries and their recorded answers appear below.
* NC(N)=NC(=O)c1nc(Cl)c(N)nc1N [Amiloride] | 5.52
* NC1C(O)OC(CO)C(O)C1O (stereo unspecified) | 8.44
* CCC(C)C(NC)C(=O)O (stereo unspecified) | 6.44
* COc1ccc(C(CN(C)C)C2(O)CCCCC2)cc1 (stereo unspecified) | 2.44
* CN=C(NC)NCCCC(N)C(=O)O (stereo unspecified) | 8.49
* Clc1cccc(Cl)c1NC1=NCCN1 | 2.85
* CC(=O)OCC(=O)NCCCOc1cccc(CN2CCCCC2)c1 | 3.01
* Cc1nccn1CC1CCc2c(c3ccccc3n2C)C1=O (stereo unspecified) | 2.83
* O=C1CN=C(c2ccccc2)c2cc(Cl)ccc2N1CC1CC1 | 1.07
* CC(O)C(NC(=O)C(N)CCC(=O)O)C(=O)O (stereo unspecified) | 9.44

Go through the items and report each one's LC retention time.
1. O=C1Nc2ccc(Cl)cc2C(c2ccccc2Cl)=NC1O (stereo unspecified)
2. O=Cc1cccc(O)c1 [3-Hydroxybenzaldehyde]
3. O=C(NCCO[N+](=O)[O-])c1cccnc1
4. Nc1nnc(-c2cccc(Cl)c2Cl)c(N)n1
5. O=C(O)c1cccnc1C(=O)O

A:
1: 1.33; 2: 1.18; 3: 1.11; 4: 1.98; 5: 2.16
